assay: inhibitors of HIV fusion peptide binding, primary screen, biochemical, uHTS, fluorescence dequenching (AID 1986); conditions: cell-free peptide binding, 30 min, at 20 µM, hits give high values
Out of some 290,000 compounds screened, about 890 (0.31%) were called active. The list comes from a sample in which actives are over-represented; it also holds close analogues and randomly drawn compounds.
Below: a set of entries, each annotated with reported inhibition.
State the answer as a number, implicitly in %.

Cc1ccc(/C=C(/C#N)C(=O)NC(C)c2ccccc2)o1 (stereo unspecified): 3.2
Cc1ccc(/C=C(\C#N)C(=O)NC(C)C)o1: 1.4
CCN(CC)c1ccc(/C=C(/C#N)C(=O)NCc2ccccc2)o1: 128

Give the value of inhibition reported for the following: `CCN(CC)c1ccc(/C=C(/C#N)C(=O)NC(C)C)o1`
113

Give the value of inhibition reported for the following: `Cc1sc2nc(C3CC3)nc(N3CCN(S(=O)(=O)c4ccc(F)cc4)CC3)c2c1C`
-0.3

Give the value of inhibition reported for the following: Cc1ccc(/C=C(\C#N)C(=O)NC(C)c2ccccc2)o1 (stereo unspecified)
0.2

* * *

test: inhibitors of HIV fusion peptide binding, primary screen, biochemical, uHTS, fluorescence dequenching (AID 1986); conditions: cell-free peptide binding, 30 min, at 20 µM
Hit rate of the full screen: of about 290,000 compounds, about 890 (0.31%) were called active. No stated cut-off is given here; in the data, active means inhibition mostly above about 52% (no sharp cut-off); inactive means mostly below about 76%. Shown is part of a subset that was picked to be rich in actives.
Write down one outcome, taken from active, inactive

How was `COC(=O)c1ccc(COc2ccc(/C=N/Nc3cccc(C(=O)O)c3)cc2)cc1` classified in this test?
active

How was `CCCc1nc(SC)[nH]c(=O)c1C` classified in this test?
inactive

* * *

test: inhibitors of HIV fusion peptide binding, primary screen, biochemical, uHTS, fluorescence dequenching (AID 1986); conditions: cell-free peptide binding, 30 min, at 20 µM, hits give high values
Hit rate of the full screen: of about 290,000 compounds, about 890 (0.31%) were called active. The sample holds actives, similar compounds and a random draw of the others, so the mix is not that of the screen.
readout: inhibition (%)
State the answer as a number, implicitly in %.

Reference set, count: 5
COc1cc(/C=N/NC(N)=O)cc([N+](=O)[O-])c1O: -1.1
COc1cc(C=C(c2nc3ccccc3s2)c2nc3ccccc3s2)ccc1O: 8.2
Cc1ccc(NC(=O)c2ccccc2NS(=O)(=O)c2ccc(Cl)s2)cc1: 56.3
CNC(=O)c1ccc(-c2cc(C(F)(F)F)nn2C)s1: -1.4
N=C1/C(=C/c2coc3ccccc3c2=O)C(=O)N=C2SC(c3ccco3)=NN12: 114

Give the value of inhibition reported for the following: `O=C(NCCCn1ccnc1)C(=O)Nc1ccccc1`
0.2

Give the value of inhibition reported for the following: `CC1=CC2=NC(=O)/C(=C/c3coc4ccc(Cl)cc4c3=O)C(=N)N2O1`
99.7

Give the value of inhibition reported for the following: `CC(C)Cn1c(N)c(C(=O)COC(=O)c2ccncc2)c(=O)n(C)c1=O`
0.1

Give the value of inhibition reported for the following: `O=C(Cn1cnc2c(nnn2-c2ccccc2)c1=O)NCCc1ccccc1`
1.1

Give the value of inhibition reported for the following: `N=C1/C(=C\c2coc3ccccc3c2=O)C(=O)N=C2SC=CN12`
146

* * *

assay: inhibitors of HIV fusion peptide binding, primary screen, biochemical, uHTS, fluorescence dequenching (AID 1986); details: cell-free peptide binding, 30 min, at 20 µM, hits give high values
Hit rate of the full screen: of about 290,000 compounds, about 890 (0.31%) were called active. The sample as a whole holds a higher share of actives than the screen did.
Below: a set of entries, each annotated with reported inhibition.

Reference set, count: 4
O=C1NC(=S)S/C1=C\c1ccc(SCc2ccccc2)o1: 72.3% (inactive)
COc1cc(/C=C2\C(=N)N3N=C(S(=O)(=O)CC(C)C)SC3=NC2=O)ccc1OC(=O)c1ccco1: 70.2% (active)
CCCOc1cccc(C(=O)N(Cc2ccc(OC)c(OC)c2)C2CCS(=O)(=O)C2)c1 (stereo not given): 1% (inactive)
CCC1=NN2C(=N)/C(=C\c3ccc(SCc4ccco4)o3)C(=O)N=C2S1: -2.8% (inactive)

Give the value of inhibition reported for the following: `O=C1NC(=S)S/C1=C\c1ccc(SCc2ccco2)o1`
53.5% (active)

* * *

assay: inhibitors of HIV fusion peptide binding, primary screen, biochemical, uHTS, fluorescence dequenching (AID 1986); conditions: cell-free peptide binding, 30 min, at 20 µM, hits give high values
The whole screen tested about 290,000 compounds, of which about 890 (0.31%) were called active. This is one part of a sample in which actives are shown more often than they occur.
readout: inhibition

COc1ccccc1NC(=O)/C(C#N)=C/C=C/c1ccco1: 24.1% (inactive)
CCOC(=O)c1ccc(N2C(=O)c3n[nH]c(-c4ccco4)c3C2c2ccc([N+](=O)[O-])cc2)cc1 (stereo not given): 60.1% (active)
COc1ccc(NC(=O)/C(C#N)=C\C=C\c2ccco2)cc1: 73.2% (inactive)

Could you now consider this next compound?
Give the value of inhibition reported for the following: Cc1ccccc1-n1ncc2c1CC(C)(C)CC2NC(=O)c1cn[nH]c1C (stereo not given)
-0.7% (inactive)

* * *

assay: inhibitors of HIV fusion peptide binding, primary screen, biochemical, uHTS, fluorescence dequenching (AID 1986); conditions: cell-free peptide binding, 30 min, at 20 µM, hits give high values
Hit rate of the full screen: of about 290,000 compounds, about 890 (0.31%) were called active. The full list was thinned out, with actives kept by preference.
Response key: criterion met means inhibition >= 20%; criterion not met means inhibition < 20%.

CCCCOc1ccc(Cc2n[nH]c(=S)n2N)cc1: criterion not met
O=C(O)CCNc1cc(N2CCN(C(=O)c3ccco3)CC2)c2noc3c2c1C(=O)c1ccccc1-3: criterion met
Cc1ccc(C(=O)N2CCCC(Nc3cccc(F)c3)C2)cc1N1CCNC1=O (centres undefined): criterion not met
CCN1CCN(c2cc(N3CCN(C(=O)c4ccco4)CC3)c3c4c(onc24)-c2ccccc2C3=O)CC1: criterion not met
Cc1ccc(C)c(S(=O)(=O)N2CCN(C(=O)c3ccc(N4CCCC4)c([N+](=O)[O-])c3)CC2)c1: criterion not met
CC(=O)OCCNc1cc(N2CCN(C)CC2)c2noc3c2c1C(=O)c1ccccc1-3: criterion not met
O=C(O)CCCNc1cc(N2CCN(C(=O)c3ccco3)CC2)c2noc3c2c1C(=O)c1ccccc1-3: criterion met
O=C(O)CCCNc1cc(N2CCC3(CC2)OCCO3)c2noc3c2c1C(=O)c1ccccc1-3: criterion met

inhibition >= 20% for `CCOC(=O)N1CCN(c2cc(NCCC(=O)O)c3c4c(onc24)-c2ccccc2C3=O)CC1` ?
criterion not met

* * *

assay: inhibitors of HIV fusion peptide binding, primary screen, biochemical, uHTS, fluorescence dequenching (AID 1986); conditions: cell-free peptide binding, 30 min, at 20 µM
Out of some 290,000 compounds screened, about 890 (0.31%) were called active. No stated cut-off is given here; in the data, active means inhibition mostly above about 52% (no sharp cut-off); inactive means mostly below about 76%. The sample holds actives, similar compounds and a random draw of the others, so the mix is not that of the screen.
Write down one outcome, taken from label 1 (active), label 0 (inactive)

Cc1cc(/C=C(/C#N)c2nc3ccccc3[nH]2)c(C)n1-c1cc(C(=O)O)cc(C(=O)O)c1: label 0
Cc1cc(/C=C(/C#N)c2nc3ccccc3[nH]2)c(C)n1-c1ccccc1C(=O)O: label 0
N#CC1=C(N)n2c(s/c(=C\c3ccco3)c2=O)=C(C#N)C1c1ccco1 (stereo not given): label 0
Cc1cccc(NC(=O)CN2C(=O)CCS(=O)(=O)c3ccccc32)c1C: label 0

How was `COc1cc(/C=N\Nc2ccc([N+](=O)[O-])cc2)ccc1OCC(=O)Nc1ccc(C)c(C)c1` classified in this test?
label 0

How was `COc1cc(/C=C(/C#N)c2nc3ccccc3[nH]2)ccc1OC(=O)c1ccco1` classified in this test?
label 0

How was `Cc1cc2nc(/C(C#N)=C\c3ccc(-c4ccccc4C(=O)O)o3)[nH]c2cc1C` classified in this test?
label 0

* * *

Below: a set of entries, each annotated with reported inhibition.
experiment: inhibitors of HIV fusion peptide binding, primary screen, biochemical, uHTS, fluorescence dequenching (AID 1986); conditions: cell-free peptide binding, 30 min, at 20 µM, hits give high values
In all, about 290,000 compounds went through this assay and about 890 (0.31%) were called active. Shown is part of a subset that was picked to be rich in actives.

Reference set, count: 3
Cn1c(=O)c2cc(S(=O)(=O)NCCC(=O)NC3CCCCCC3)ccc2n(C)c1=O: -0.8% (inactive)
O=C(CSc1nnc(C2CCCCC2)o1)Nc1ccccc1Cl: 2.8% (inactive)
CN(CC(=O)NC1CCCCC1)S(=O)(=O)c1ccc2c(c1)c(=O)n(C)c(=O)n2C: -0.8% (inactive)

Give the value of inhibition reported for the following: `O=C(O)CC/C(=C\c1cccc(NC(=O)c2ccccc2Cl)c1)c1nc2ccccc2s1`
64.7% (inactive)

Give the value of inhibition reported for the following: `Cn1c(=O)c2cc(S(=O)(=O)NCCC(=O)NC3CCCCCCC3)ccc2n(C)c1=O`
70.9% (active)
